B1: Membrane-associated guanylate kinase, WW and PDZ domain-containing protein 1, residues 352 to 401; numbered along this chain, Q96QZ7 (parent)
chain: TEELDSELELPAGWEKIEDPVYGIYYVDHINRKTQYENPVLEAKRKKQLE

- Variants of: B1
- method: abundance fitness (aPCA) (normalised: wild type 0, dead -1); higher = more abundant; growth selection in yeast, the domain comes from the species named
- run_parameters: Homo sapiens
Collected abundance fitness values appear next to each entry.
No unit in the answer, please; the number alone is enough.

Here are 6 variants together with their reported answers.
{"alteration": "E15N", "abundance fitness": -0.449}
{"alteration": "D28P", "abundance fitness": -0.855}
{"alteration": "K44C", "abundance fitness": -0.03}
{"alteration": "S6D", "abundance fitness": -0.141}
{"alteration": "D19L", "abundance fitness": -0.985}
{"alteration": "L10H", "abundance fitness": -0.751}

Then this variant:
Exam item: Which abundance fitness reading was recorded for the variant Q35F ?
Marked response: -0.68
